Measured screen value, listed per entry.
B1: ATGL (PNPLA2, patatin-like phospholipase domain-containing protein 2), human, full length / CIDEC (FSP27), human (parent)
chain 1: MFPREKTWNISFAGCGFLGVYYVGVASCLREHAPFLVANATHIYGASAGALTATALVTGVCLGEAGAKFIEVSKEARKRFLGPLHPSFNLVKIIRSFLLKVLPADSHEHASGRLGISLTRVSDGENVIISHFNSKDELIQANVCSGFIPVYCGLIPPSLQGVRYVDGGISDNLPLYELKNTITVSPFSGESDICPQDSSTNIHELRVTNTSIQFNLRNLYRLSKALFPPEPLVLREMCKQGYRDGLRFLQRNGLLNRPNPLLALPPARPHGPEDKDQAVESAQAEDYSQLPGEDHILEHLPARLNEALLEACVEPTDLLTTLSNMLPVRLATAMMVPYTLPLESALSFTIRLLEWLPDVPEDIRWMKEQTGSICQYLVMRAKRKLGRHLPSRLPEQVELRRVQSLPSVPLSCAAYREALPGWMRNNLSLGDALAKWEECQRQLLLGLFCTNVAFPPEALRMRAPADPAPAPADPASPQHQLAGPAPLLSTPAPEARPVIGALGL
chain 2: MEYAMKSLSLLYPKSLSRHVSVRTSVVTQQLLSEPSPKAPRARPCRVSTADRSVRKGIMAYSLEDLLLKVRDTLMLADKPFFLVLEEDGTTVETEEYFQALAGDTVFMVLQKGQKWQPPSEQGTRHPLSLSHKPAKKIDVARVTFDLYKLNPQDFIGCLNVKATFYDTYSLSYDLHCCGAKRIMKEAFRWALFSMQATGHVLLGTSCYLQQLLDATEEGQPPKGKASSLIPTCLKILQ

Variants of: B1
assay.remarks: LUMIER: Protein A-ATGL variant and firefly luciferase-partner co-expressed in HEK293T, lysates immunoprecipitated on IgG-coated plates, co-precipitated partner measured as luciferase luminescence
cond: with CIDEC (FSP27), transient co-transfection, IgG-coated LUMITRAC plates, 2 h at 4 °C, three PBS washes, Bright-Glo luciferase reagent, triplicates per assay, two …, parent: 0.17, not graded, scale: log2 fold change of co-immunoprecipitated luminescence relative to wild-type ATGL within each experiment

# mutation.spec, screen value
measured = [
    ("chain 1 Q140K", -0.161),
    ("chain 1 T41A", 0.105),
    ("chain 1 S87A", -0.0562),
    ("chain 1 R351L", -0.353),
    ("chain 1 P156K", -0.723),
]
